Measured % inhibition by item
Test system: T1, recombinant human EGFR extracellular domain with 6xHis (human, UniProt P00533 25-645)
T1 construct: In-house produced; also called 6xHis EGFR ECD; soluble human EGFR ECD; not shown: 6xHis tag
Test summary: SPR competition, competitor 1344
Provide only the numeric value, understood in %.

Examples with answers:
antibody 1261 (antibody, human IgG1, kappa, V domains shown, Chimeric IgG1 kappa) VH: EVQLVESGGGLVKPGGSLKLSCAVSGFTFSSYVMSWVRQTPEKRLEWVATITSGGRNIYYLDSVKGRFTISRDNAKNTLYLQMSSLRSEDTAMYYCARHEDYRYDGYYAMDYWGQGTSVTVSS VL: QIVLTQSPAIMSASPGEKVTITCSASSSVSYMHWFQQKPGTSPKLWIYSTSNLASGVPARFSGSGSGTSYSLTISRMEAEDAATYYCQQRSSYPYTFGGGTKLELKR: 65
antibody 1208 (antibody, human IgG1, kappa, V domains shown, Chimeric IgG1 kappa; also called clone 1208) VH: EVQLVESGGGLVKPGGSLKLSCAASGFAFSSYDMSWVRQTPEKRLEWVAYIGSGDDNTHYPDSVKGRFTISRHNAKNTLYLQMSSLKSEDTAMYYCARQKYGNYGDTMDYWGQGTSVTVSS VL: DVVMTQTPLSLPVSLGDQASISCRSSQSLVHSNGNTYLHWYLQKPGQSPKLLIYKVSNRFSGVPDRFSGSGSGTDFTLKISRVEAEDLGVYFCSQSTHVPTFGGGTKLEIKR: 7

Which % inhibition value belongs to antibody 1024 (antibody, human IgG1, kappa, V domains shown, Chimeric IgG1 kappa) VH: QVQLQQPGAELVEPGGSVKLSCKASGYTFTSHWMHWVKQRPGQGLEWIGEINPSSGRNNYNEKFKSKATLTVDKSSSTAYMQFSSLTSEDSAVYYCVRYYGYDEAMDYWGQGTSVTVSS VL: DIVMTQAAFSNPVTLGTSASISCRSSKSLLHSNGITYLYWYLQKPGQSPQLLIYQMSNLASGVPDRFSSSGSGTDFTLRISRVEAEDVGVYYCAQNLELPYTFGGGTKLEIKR ? 1
